measurement.target: HIV-1 reverse transcriptase (Human immunodeficiency virus type 1 group M subtype B)
procedure.details: cell-free HIV-1 RT assay with artificial homopolymeric template/primer and [3H]dNTP
Type: biochemical
settings: substrate [3H]dATP, template/primer poly rU.oligo dA; read-out: IC50, HIV-RT catalysed incorporation of [3H]dATP / polyrU.dA (converted)
Mark each entry met if its IC50 sits below 100 µM, and not met for all others.

Use these answered entries as a reference point.
In [3]: df
Out[3]:
                                   compound  assigned_class
0  Nc1ccn([C@@H]2CC[C@H](OC(C(=O)O)P(=O)(O)O)C2)c(=O)n1 (single isomer, unassigned; (-)) [(−)-11c]             met
1  Nc1ncnc2c1ncn2[C@@H]1CC[C@H](OC(C(=O)O)P(=O)(O)O)C1 (single isomer, unassigned; (-)) [(−)-11d]             met
2  O=C(O)C(O[C@@H]1CC[C@H](n2ccc(=O)[nH]c2=O)C1)P(=O)(O)O (single isomer, unassigned; (+)) [(+)-11b]         not met

API: query returns whether the compound falls strictly under 100 µM in IC50. Query: O=C(O)C(O[C@H]1CC[C@@H](n2ccc(=O)[nH]c2=O)C1)P(=O)(O)O (relative stereo) [Compound 11b]
not met

API: query returns whether the compound falls strictly under 100 µM in IC50. Query: Nc1ncnc2c1ncn2[C@H]1CC[C@@H](OC(C(=O)O)P(=O)(O)O)C1 (single isomer, unassigned; (+)) [(+)-11d]
met

----------
measurement.target: HIV-1 reverse transcriptase (Human immunodeficiency virus type 1 group M subtype B)
procedure.details: cell-free HIV-1 RT assay with artificial homopolymeric template/primer and [3H]dNTP
Type: biochemical
settings: IC50, HIV-RT catalysed incorporation of [3H]dTTP / polyrA.dT, substrate [3H]dTTP, template/primer poly rA.oligo dT
Kindly supply the reported IC50 values for the records listed here.

                                   compound  observed_result
0  Cc1cn([C@@H]2CC[C@H](OC(C(=O)O)P(=O)(O)O)C2)c(=O)[nH]c1=O (single isomer, unassigned; (-)) [(−)-11a]           431 nM

Now for another entry.
// field: IC50; key: Nc1ncnc2c1ncn2[C@@H]1CC[C@H](OC(C(=O)O)P(=O)(O)O)C1 (relative stereo) [Compound 11d] ; value = ≥ 560000 nM

----------
measurement.target: HIV-1 reverse transcriptase (Human immunodeficiency virus type 1 group M subtype B)
procedure.details: cell-free HIV-1 RT assay with artificial homopolymeric template/primer and [3H]dNTP
Format: biochemical
settings: substrate [3H]dTTP, template/primer poly rA.oligo dT; read-out: IC50, HIV-RT catalysed incorporation of [3H]dTTP / polyrA.dT (converted)
Description: To prepare the template/primers for the RT experiments, 0.15 mM poly(U), poly(A), and poly(I) were mixed with an equal volume of 0.0375 mM oligo(dA), oligo(dT), and oligo(dC), respectively. The final concentrations of the templates in the RT reaction mixture were 0.015 mM. […] The solutions were kept on ice for 30 min, after which the acid-insoluble material was washed and analyzed for radioactivity.
Class boundaries, taken from values of IC50, are as follows: class 1 (below 4 µM), class 2 (4 µM to below 200 µM), class 3 (200 µM or more)

In [3]: df
Out[3]:
                                   compound                        measurement_target  assigned_class
0  Cc1cn([C@H]2CC[C@@H](OC(C(=O)O)P(=O)(O)O)C2)c(=O)[nH]c1=O (single isomer, unassigned; (+)) [(+)-11a]  HIV-1 reverse transcriptase (Human immunodeficiency virus type 1 group M subtype B)         class 2
1  Nc1ccn([C@@H]2CC[C@H](OC(C(=O)O)P(=O)(O)O)C2)c(=O)n1 (single isomer, unassigned; (-)) [(−)-11c]  HIV-1 reverse transcriptase (Human immunodeficiency virus type 1 group M subtype B)         class 2
2  Nc1ccn([C@@H]2CC[C@H](OC(C(=O)O)P(=O)(O)O)C2)c(=O)n1 (relative stereo) [Compound 11c]  HIV-1 reverse transcriptase (Human immunodeficiency virus type 1 group M subtype B)         class 3

Then there is this compound:
Exercise: read the entry Nc1ncnc2c1ncn2[C@@H]1CC[C@H](OC(C(=O)O)P(=O)(O)O)C1 (single isomer, unassigned; (-)) [(−)-11d] and state which class it falls under.
class 3
